# ASSAY: protein stability index of a GFP-peptide fusion (GPS, HEK-293T) (PSI 1-6); higher = more stable;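 also: 24-mer peptide tiles fused after GFP, lentivirally expressed, FACS-sorted into six equal bins by GFP/DsRed ratio, decoded by Illumina sequencing, PSI is the read-weighted mean bin number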
# CONDITION_DETAILS: treatment: DMSO; c terminus: a fixed tail appended
Response key: true means protein stability index >= 3; false means protein stability index < 3.

| ORDERED_RESIDUES | CAT |
| --- | --- |
| WIFVNLTVRFCILGKESFYDTFHT [HACD3] | true |
| SLRSIEQKYKLFQQQQLTFTAALE [SPACA9] | false |
| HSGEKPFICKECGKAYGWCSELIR [ZNF232] | false |
| VLQDRAAKGSLGTQIGFADLMGVL [FEM1A] | false |
| DDSGGPTPSSYAPSHPPRPLLPLD [ZBTB22] | true |
| IDAVPVDENLFTGEDLDELEEELN [ZC3H15] | true |
| TPAFMFRLDASTSHQNLRVDDLSV [FSD1] | false |
| TGYLSSMVGLILGPFGVNHGVELH [PCMTD2] | true |
| CYYCQAYVHHQALLDVKNIAHQNK [HDAC6] | false |
| VLEMFDLRMMVENIMNKEAFMNQE [RHOBTB1] | false |
| ELAELEDALRNLKCGSGARGGDGE [TRADD] | true |
| MEVPQPEPAPGSALSPAGVCGGAQ [CDC25B] | true |
| RPTSCWQLDWDELETNQQHFHALC [M1AP] | false |
| ELVLEQQLDREAQARHQLVLTAVD [PCDHGC5] | true |
| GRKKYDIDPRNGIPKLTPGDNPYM [SPATS1] | true |
| FADEKNILHIMVKVVKGHRPELPP [RIPK4] | false |
| LAEYQDLTFLTKQEILLAHRRFCE [CIB1] | false |
| WPKLCPCLRSGIGSSQALGPSPPL [MYCL] | false |
| GVKISEQQAEKILKSMDKNGTMTI [SLC25A25] | true |
| EEKIQVLQQQNEDLKARIDQNTVV [MTUS2] | true |
| MTQLSSTLARCAKDILGFAVMFFI [PKD2L1] | false |
| QENQARTHVLSKEVQHLREEKSKQ [LRRC45] | true |
| DVPVIPLDVVDNQTEKLDTNITEV [CASP6] | true |
| HKQLLLFHNAVSAYFAGNQKQLEQ [ARFIP2] | false |
| WQQQSYLDSGIHSGATTTAPSLSG [CTNNB1] | true |
| EYSPEEESEPPAPNIRNMAPNSLS [TRAF3IP2] | true |
| EPIPFWTFLSRILTGLNYEAPKYH [NSDHL] | false |
| PLRPLLGFRESDSAKPASLRLLQH [C6orf223] | true |
| LTPGQSDSAKREVKQKISPYFKSN [FAN1] | true |
| YLTEGLLQFTILLSLIGVRVDVDT [NFE2L1] | false |
| SWTAVTPQQTWASPAEVVDLTLDE [C18orf25] | true |
| GPFGVNHGVELHSDVIEYAKQKLD [PCMTD2] | true |
| VLPHVPLGVIQRDLAKTGCVDLTI [AUP1] | false |
| TATEELEKTQDDLMKHQTNISELK [EPB41L3] | true |
| AANPRPDALMKEQLVEMTGLSPRV [ISL2] | true |
| RSVRVRLLLSFWKETDPLTFNFIS [PLD5] | false |
| PLHAPEAYFPYFKKHNVTAVVRLN [CDC14A] | false |
| TGDGWEFKLADPDEVARRWGKRKN [ETS2] | true |
| GSQPNSGLALESSSGLQDVTGPDN [NFE2L1] | true |
| EHPPEVSRETQRTPMNHQKAVNDE [FBXO34] | true |
| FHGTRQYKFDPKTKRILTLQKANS [MMP1] | false |
| RPDKALSEGDLKNAIRVHHALATR [PSD2] | true |
| GQLYAMELQGFWMDIGQPKDFLTG [GMPPB] | false |
| QLWELGKVLRKAGLSAGYVDAGAE [LPCAT4] | false |
| FRCLFEAEITQIQSHISDMSVILS [KRT71] | false |
| REETPRMPSWASARDRQPSDFKTD [ELOA2] | true |
| SVLKLHHSLQQSEPDLRHLVLVVN [SERTAD1] | false |
| KSPTGLKLKNDTENHQPVSLSDLE [ZNF75A] | true |
